Data credit: patent US5633274A

biological target: Ca++ activated K channel of human erythrocytes (Homo sapiens, UniProt O15554); construct: Preparation of Human Red Blood Cells: Blood is collected in heparinized tubes; endogenous in cells; host or cells: washed human erythrocytes (red blood cells) from heparinized blood; experiment: Inhibition of Ca++ activated K channel of human erythrocytes (86Rb influx, K efflux); type: cell-based; conditions: other antimycotics; human erythrocytes; FIG. 4
Recorded Metric: inhibition of Ca++ activated 86Rb influx

>>> print(df.to_string())
                                   compound                           recorded_metric         result
0  OC(Cn1cncn1)(Cn1cncn1)c1ccc(F)cc1F [fluconazole]  inhibition of Ca++ activated 86Rb influx  no inhibition
1  Cc1ncc([N+](=O)[O-])n1CC(O)CCl (stereo not shown) [ornidazole]  inhibition of Ca++ activated 86Rb influx  no inhibition
2  CCS(=O)(=O)CCn1c([N+](=O)[O-])cnc1C [tinidazole]  inhibition of Ca++ activated 86Rb influx  no inhibition
